Numbers sourced from patent US20190308988A1.

- Assay explanation: Solubility determination in oil (Table 10)
- Test parameters: 40 °C, water, thermodynamic from solid, Equilibrium solubility: Water, Heating Temp. 40 °C, Obs. Temp. 40 °C
- Protocol: A known amount of test substance (˜40 mg) was weighed into the vial, 100 μL of oil was added and heated to 60° C. and then system was slurried to reach equilibrium. […] Extra oil was added into the vial once compound precipitated out and then the system was re-equilibrated at 1000 rpm at room temperature (25° C.). Final concentration was determined by HPLC method as described below in Table 6a and 6b.
Item-by-item account of solubility thermodynamic
Readout type: solubility thermodynamic (µg/mL)

> print(dat)
                           smiles.structure  unit.of.measure  censoring.sign  measured.value
1  C=C1CC[C@@]2(O)C3Cc4ccc(OC(=O)CCCCCCCCCCC/C=C\CCCCCCCC)c5c4[C@@]2(CCN3CC2CC2)[C@H]1O5            µg/mL               =               2
2  CCCCCCCCCCCCCCCCOC(=O)OCOc1ccc2c3c1O[C@H]1C(=O)CC[C@@]4(O)C(C2)N(CC2CC2)CC[C@]314            µg/mL               <               1
3  C=C1CC[C@@]2(O)C3Cc4ccc(OC(=O)CCCCCCC/C=C\CCCCCCCC)c5c4[C@@]2(CCN3CC2CC2)[C@H]1O5            µg/mL               =               5
